Entry source: patent US20190064177A1

- Subject of test: Diaphorase
- Assay protocol: peptide array, 1 uM labeled diaphorase, no FAD
Decide by fluorescence: equal to or exceeding 2000 means yes (1), less means no (0).

Binder: YSALFGLQEDGSG
Discrete label: no (0)
--
Binder: EDEGLSKFEGGSG
Discrete label: no (0)
--
Binder: LKQLFLEGGSG
Discrete label: no (0)
--
Binder: YRNAAWFSGGSG
Discrete label: yes (1)
--
Binder: AFYGLELGGSG
Discrete label: yes (1)
--
Binder: RYNLYKPSDGSG
Discrete label: yes (1)
--
Binder: RQAYLFGGSG
Discrete label: yes (1)
--
Binder: RLYPQGYGGSG
Discrete label: yes (1)
